# protocol_summary: Repeat once-weekly IV dose toxicokinetics in dogs
# Type: in vivo
# condition: male, dog, in vivo, iv, 9.3 mg/kg, dogs M, 9.3 mg/kg once-weekly IV, Day 0; read-out: Vss
measurement_name: Vd (L/kg)
Please reply with the bare figure in L/kg and do not write the unit itself.

Q: Would you kindly share the measured Vd for CC1(C)C(=CC=C2CCCC(C=CC3=[N+](CCCCS(=O)(=O)[O-])c4ccc(S(=O)(=O)O)cc4C3(C)C)=C2Oc2ccc(CC(NC(=O)c3ccc(NCc4cnc5nc(N)[nH]c(=O)c5n4)cc3)C(=O)O)cc2)N(CCCCS(=O)(=O)O)c2ccc(S(=O)(=O)O)cc21 (stereo not shown) ?
A: 2.1
